assayed-system: Mitogen-activated protein kinase 1 (Homo sapiens) (UniProt P28482);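 further: values are mean inhibition, from the GSK PKIS collection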
Sequence (P28482 whole entry): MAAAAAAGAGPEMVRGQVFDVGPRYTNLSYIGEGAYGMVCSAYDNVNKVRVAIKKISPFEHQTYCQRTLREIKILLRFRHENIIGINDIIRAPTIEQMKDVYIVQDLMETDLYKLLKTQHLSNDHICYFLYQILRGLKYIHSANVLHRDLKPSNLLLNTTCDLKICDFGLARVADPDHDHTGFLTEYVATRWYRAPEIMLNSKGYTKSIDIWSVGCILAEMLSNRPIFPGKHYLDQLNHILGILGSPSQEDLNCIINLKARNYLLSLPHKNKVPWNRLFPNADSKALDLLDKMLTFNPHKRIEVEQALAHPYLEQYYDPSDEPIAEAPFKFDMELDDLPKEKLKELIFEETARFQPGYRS
condition-description: at 1 µM
Here, each record is paired with measured inhibition data.

| cpd-smiles | assayed-system | units-of-measure | inhibition |
| --- | --- | --- | --- |
| CCN1CCC(CC(=O)Nc2n[nH]c3nnc(-c4cccc(F)c4F)cc23)CC1 | Mitogen-activated protein kinase 1 (Homo sapiens) (UniProt P28482) | % | 2.72 |
| CCn1c(-c2nonc2N)nc2c(C#CC(C)(C)O)ncc(OC3CCNCC3)c21 | Mitogen-activated protein kinase 1 (Homo sapiens) (UniProt P28482) | % | 7.43 |
| CC(C)(CO)CNC(=O)c1ccc2c(c1)/C(=N/Nc1ccc(S(N)(=O)=O)cc1)C(=O)N2 | Mitogen-activated protein kinase 1 (Homo sapiens) (UniProt P28482) | % | 42.1 |
| COc1ccc(CNC(=O)c2ccc(-c3cc(-c4nnc(C)o4)ccc3C)cc2)cc1 | Mitogen-activated protein kinase 1 (Homo sapiens) (UniProt P28482) | % | -9.41 |
| Fc1ccc(-c2nn3ccccc3c2-c2ccncc2)cc1 | Mitogen-activated protein kinase 1 (Homo sapiens) (UniProt P28482) | % | 1.21 |
| COc1ccc(-c2oc3ncnc(N)c3c2-c2ccc(NC(=O)Nc3cc(C(F)(F)F)ccc3F)cc2)cc1 | Mitogen-activated protein kinase 1 (Homo sapiens) (UniProt P28482) | % | 6.23 |
| NS(=O)(=O)c1ccc(N/N=C2\C(=O)Nc3ccc4ncccc4c32)cc1 | Mitogen-activated protein kinase 1 (Homo sapiens) (UniProt P28482) | % | 55.5 |
| CC(C)COC(=O)c1ccc2c(c1)/C(=C/Nc1ccc(S(N)(=O)=O)cc1)C(=O)N2 | Mitogen-activated protein kinase 1 (Homo sapiens) (UniProt P28482) | % | 31.3 |
| COc1cc(Nc2nccc(Nc3ccc4c(C)n[nH]c4c3)n2)cc(OC)c1OC | Mitogen-activated protein kinase 1 (Homo sapiens) (UniProt P28482) | % | 3.16 |
| c1ccc(-c2nc3n(c2-c2ccc4c(c2)OCO4)CCC3)nc1 | Mitogen-activated protein kinase 1 (Homo sapiens) (UniProt P28482) | % | 0.62 |

###

assayed-system: Protein kinase C alpha type (Homo sapiens) (UniProt P17252);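 further: reported value is the mean inhibition, measured within the GSK PKIS screening panel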
condition-description: at 1 µM

| cpd-smiles | inhibition [%] |
| --- | --- |
| Cc1ccc(O)cc1Nc1ccnc2cc(-c3ccccn3)ccc12 | 1.06 |
| CCCN1CCC(c2ccc(Nc3nc(Nc4cc(F)ccc4C(N)=O)c4cc[nH]c4n3)c(OC)c2)CC1 | 16.6 |
| CS(=O)(=O)CCNCc1ccc(-c2ccc3ncnc(Nc4ccc(OCc5ccccc5)c(C(F)(F)F)c4)c3c2)o1 | 0.28 |
| COc1cc(Nc2nccc(Nc3ccc4c(C)n[nH]c4c3)n2)cc(OC)c1OC | 10.2 |
| N#Cc1c(NC(=O)c2ccc(F)cc2)sc2c1CCCC2 | -0.26 |
| CC(=O)NCc1cccc(C#Cc2cncnc2Nc2ccc(OCc3cccc(F)c3)c(Cl)c2)c1 | 1.17 |
| COc1cc2c(cc1Nc1nc(Nc3ccsc3C(N)=O)c3cc[nH]c3n1)N(C(=O)CN(C)C)CCC2(C)C | 34.3 |
| CN(C)CCOc1ccc(-c2nc(-c3ccncc3)c(-c3ccc4c(c3)CC/C4=N\O)[nH]2)cc1 | 1.61 |
| Fc1cccc(COc2ccc(Nc3ncnc4sc(-c5ccco5)cc34)cc2Cl)c1 | 1.21 |

###

assayed-system: Ephrin type-A receptor 4 (Homo sapiens);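 further: mean inhibition of EPHA4 from the GSK PKIS screening set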
condition-description: at 0.1 µM
value-type: inhibition (%)

| cpd-smiles | assayed-system | value-type | recorded-value |
| --- | --- | --- | --- |
| CS(=O)(=O)CCNCc1coc(-c2ccc3ncnc(Nc4ccc(OCc5ccccc5)cc4)c3c2)c1 | Ephrin type-A receptor 4 (Homo sapiens) | inhibition | 8.01 |
| CCc1nn2ncccc2c1-c1ccnc(NC2CC2)n1 | Ephrin type-A receptor 4 (Homo sapiens) | inhibition | 4.8 |
| O=C(O[C@H]1CN[C@H](C#Cc2cc3ncnc(Nc4ccc(Cc5ccccc5)cc4)c3s2)C1)N1CCOCC1 | Ephrin type-A receptor 4 (Homo sapiens) | inhibition | 3.73 |
| CCOc1ccc2c(-c3ccnc(Nc4cccc(C(F)(F)F)c4)n3)cnn2n1 | Ephrin type-A receptor 4 (Homo sapiens) | inhibition | 6.67 |
| CC(=O)NCc1cccc(C#Cc2cncnc2Nc2ccc(OCc3cccc(F)c3)c(Cl)c2)c1 | Ephrin type-A receptor 4 (Homo sapiens) | inhibition | -2.22 |
| COc1cc(/C=N/Nc2ncnc3[nH]ncc23)ccc1O | Ephrin type-A receptor 4 (Homo sapiens) | inhibition | 14.9 |
| CC(C)COC(=O)c1ccc2c(c1)/C(=C/Nc1ccc(S(N)(=O)=O)cc1)C(=O)N2 | Ephrin type-A receptor 4 (Homo sapiens) | inhibition | -1.11 |
| Cc1cccc(Nc2ncc(-c3ccccc3)o2)c1 | Ephrin type-A receptor 4 (Homo sapiens) | inhibition | 5.68 |
| Cc1ccc(O)cc1Nc1ccnc2cc(-c3ccccn3)ccc12 | Ephrin type-A receptor 4 (Homo sapiens) | inhibition | 91.2 |
| Cc1ccc2c(-c3ccnc(Nc4ccccc4)n3)c(-c3ccc(F)cc3)nn2n1 | Ephrin type-A receptor 4 (Homo sapiens) | inhibition | 11.5 |

###

assayed-system: Tyrosine-protein kinase Srms (Homo sapiens)
condition-description: at 1 µM
Description: GSK_PKIS: SRMS mean inhibition at 1 uM [Nanosyn]

| cpd-smiles | inhibition |
| --- | --- |
| CNC(=O)c1cccc(C#Cc2cncnc2Nc2ccc(OCc3cccc(F)c3)c(Cl)c2)c1 | 1.17% |
| COc1ccc2[nH]c3c4[nH]c5ccc(OC)cc5c4c4c(c3c2c1)C(=O)NC4=O | 15.6% |
| COC(=O)Nc1nc2ccc(Oc3ccc(NC(=O)Nc4cccc(Cl)c4)cc3)cc2[nH]1 | -1.42% |
| Clc1ccc(-c2nn3ncccc3c2-c2ccnc(Nc3ccccc3)n2)cc1 | 5.97% |
| COc1ccc(CNC(=O)c2ccc(-c3cc(-c4nnc(C)o4)ccc3C)cc2)cc1 | 8.13% |

###

assayed-system: Cytoplasmic tyrosine-protein kinase BMX (Homo sapiens) (UniProt P51813);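 further: reported value is the mean percent inhibition of BMX, from the GSK PKIS kinase inhibitor screen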
Sequence (P51813 whole entry): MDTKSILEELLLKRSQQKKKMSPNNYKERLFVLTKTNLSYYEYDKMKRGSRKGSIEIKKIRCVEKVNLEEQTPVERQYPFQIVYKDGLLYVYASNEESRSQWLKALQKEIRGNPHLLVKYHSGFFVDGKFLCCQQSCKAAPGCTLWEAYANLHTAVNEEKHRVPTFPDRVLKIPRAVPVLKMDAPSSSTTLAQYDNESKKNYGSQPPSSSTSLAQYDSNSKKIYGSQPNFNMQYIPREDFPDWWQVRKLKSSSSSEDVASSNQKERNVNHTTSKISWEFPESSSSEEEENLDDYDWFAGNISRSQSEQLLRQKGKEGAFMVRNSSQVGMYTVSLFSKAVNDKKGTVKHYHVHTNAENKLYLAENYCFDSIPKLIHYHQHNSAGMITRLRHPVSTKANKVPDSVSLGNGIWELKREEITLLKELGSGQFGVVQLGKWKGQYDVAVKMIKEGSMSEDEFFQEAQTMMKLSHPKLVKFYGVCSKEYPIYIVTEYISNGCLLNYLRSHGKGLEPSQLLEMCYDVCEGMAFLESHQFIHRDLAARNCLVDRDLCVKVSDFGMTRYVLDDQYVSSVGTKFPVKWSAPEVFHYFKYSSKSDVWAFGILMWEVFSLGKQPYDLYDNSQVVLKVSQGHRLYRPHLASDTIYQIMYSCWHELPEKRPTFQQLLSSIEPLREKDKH
condition-description: at 1 µM
// values below are reported inhibition

| cpd-smiles | inhibition |
| --- | --- |
| c1ccc(COc2ccc(Nc3ncnc4ccc(-c5ccco5)cc34)cc2)cc1 | 2.02% |
| COc1ccc2c(-c3ccnc(Nc4cccc(OC(F)(F)F)c4)n3)cnn2n1 | 8.05% |
| CC(=O)Nc1cccc(C#Cc2cncnc2Nc2ccc(OCc3cccc(F)c3)c(Cl)c2)c1 | 4.15% |
| COC(=O)Nc1nc2ccc(Oc3ccc(NC(=O)Nc4cccc(Cl)c4)cc3)cc2[nH]1 | 1.28% |
| Fc1cccc(COc2ccc(Nc3ncnc4sc(-c5ccco5)cc34)cc2Cl)c1 | 2.36% |

###

assayed-system: Macrophage colony-stimulating factor 1 receptor (Homo sapiens) (UniProt P07333)
Sequence (P07333 whole entry): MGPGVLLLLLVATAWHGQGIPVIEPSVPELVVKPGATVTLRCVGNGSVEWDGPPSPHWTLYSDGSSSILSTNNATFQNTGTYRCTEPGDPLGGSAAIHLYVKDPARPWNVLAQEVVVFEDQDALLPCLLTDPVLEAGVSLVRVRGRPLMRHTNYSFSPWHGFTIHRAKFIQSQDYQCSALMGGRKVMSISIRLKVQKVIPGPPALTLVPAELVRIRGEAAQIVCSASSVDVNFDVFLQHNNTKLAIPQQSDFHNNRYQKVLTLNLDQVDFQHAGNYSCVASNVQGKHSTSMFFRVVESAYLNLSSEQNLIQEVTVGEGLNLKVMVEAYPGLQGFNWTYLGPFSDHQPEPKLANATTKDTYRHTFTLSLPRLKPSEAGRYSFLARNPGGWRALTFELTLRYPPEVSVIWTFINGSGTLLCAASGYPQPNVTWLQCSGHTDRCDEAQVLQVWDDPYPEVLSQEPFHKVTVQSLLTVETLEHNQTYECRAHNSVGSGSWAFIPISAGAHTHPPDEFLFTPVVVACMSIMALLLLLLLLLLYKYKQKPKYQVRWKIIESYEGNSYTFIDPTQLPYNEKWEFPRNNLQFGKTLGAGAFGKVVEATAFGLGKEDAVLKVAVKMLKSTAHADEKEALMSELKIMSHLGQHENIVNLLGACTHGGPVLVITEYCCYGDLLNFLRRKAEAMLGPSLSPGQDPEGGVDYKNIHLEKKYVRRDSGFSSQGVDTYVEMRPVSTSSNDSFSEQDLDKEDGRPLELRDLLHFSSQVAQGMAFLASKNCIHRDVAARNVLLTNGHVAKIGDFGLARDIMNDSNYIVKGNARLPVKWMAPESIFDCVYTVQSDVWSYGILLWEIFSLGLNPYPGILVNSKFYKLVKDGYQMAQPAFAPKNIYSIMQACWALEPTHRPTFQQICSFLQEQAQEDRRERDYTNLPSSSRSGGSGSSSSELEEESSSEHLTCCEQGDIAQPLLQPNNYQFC
condition-description: at 1 µM
Listed here: items and their measured inhibition.
value-type: inhibition (%)

| cpd-smiles | recorded-value |
| --- | --- |
| O=C(Nc1n[nH]c2cc(-c3ccc(F)cc3)ccc12)C1CC1 | 1.6 |
| COc1ccc(CNC(=O)c2ccc(-c3cc(-c4nnc(C)o4)ccc3C)cc2)cc1 | 0.46 |
| N#Cc1c(NC(=O)CN2CCOCC2)sc2c1CCCC2 | 2.67 |
| CCN1CCC(CC(=O)Nc2n[nH]c3nnc(-c4cccc(F)c4F)cc23)CC1 | 5.72 |
| CC(C)COC(=O)c1ccc2c(c1)/C(=C/Nc1ccc(S(N)(=O)=O)cc1)C(=O)N2 | 45.8 |
| CNC(=O)c1cncc(/C=C/c2ccccc2Cl)c1 | 4.05 |
| Cc1cccc(Nc2ncc(-c3ccccc3)o2)c1 | 25.7 |
| COC(=O)c1sc(-n2cnc3cc(OC)c(OC)cc32)cc1OCc1ccccc1C(F)(F)F | 60.9 |
| c1ccc(-c2nc3n(c2-c2ccc4c(c2)OCO4)CCC3)nc1 | 1.74 |
| COc1ccc(-c2cc3c(N)ncnc3o2)cc1 | 17.9 |
| Fc1ccc(-c2cc(-c3c[nH]nc3-c3ccccn3)ccn2)cc1 | 3.27 |

###

Listed here are compounds together with their documented inhibition.
assayed-system: Platelet-derived growth factor receptor alpha (Homo sapiens);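 further: values are mean percent inhibition of PDGFRA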
condition-description: at 1 µM
value-type: inhibition (%)

| compound | value-type | units-of-measure | recorded-value |
| --- | --- | --- | --- |
| N#Cc1c(NC(=O)CN2CCOCC2)sc2c1CCCC2 | inhibition | % | 10.4 |
| CC1=C(C(=O)Nc2cc(Cl)c3[nH]ncc3c2)C(c2ccc(C(F)(F)F)cc2)CC(=O)N1 (stereo not given) | inhibition | % | 8.87 |
| CCCN1CCC(c2ccc(Nc3nc(Nc4cc(F)ccc4C(N)=O)c4cc[nH]c4n3)c(OC)c2)CC1 | inhibition | % | 46.5 |
| O=C(Nc1n[nH]c2cc(-c3ccc(F)cc3)ccc12)C1CC1 | inhibition | % | 14.6 |
| CCn1c(-c2nonc2N)nc2c(C#CC(C)(C)O)nc(OC[C@H](N)c3ccccc3)cc21 | inhibition | % | 43.8 |
| COC(=O)c1sc(-n2cnc3cc(OC)c(OC)cc32)cc1OCc1ccccc1C(F)(F)F | inhibition | % | 66.3 |
| COc1ccc(-c2cc3c(N)ncnc3o2)cc1 | inhibition | % | 16.5 |
| CNC(=O)c1cncc(/C=C/c2ccccc2Cl)c1 | inhibition | % | 19.1 |
| COc1cccc(-c2c[nH]c3c(N/N=C/c4ccncc4)ncnc23)c1 | inhibition | % | 82.8 |
| COc1cc(Nc2nccc(Nc3ccc4c(C)n[nH]c4c3)n2)cc(OC)c1OC | inhibition | % | 91.6 |
| Fc1ccc(-c2nn3ccccc3c2-c2ccncc2)cc1 | inhibition | % | 5.44 |
| CC(C)COC(=O)c1ccc2c(c1)/C(=C/Nc1ccc(S(N)(=O)=O)cc1)C(=O)N2 | inhibition | % | 84.3 |
| NC(=O)c1sc(-n2cnc3ccc(C(F)(F)F)cc32)cc1OCc1ccccc1Br | inhibition | % | 11 |
| CCN(CC)S(=O)(=O)c1ccc(OC)c(Nc2ncc(-c3ccccc3)o2)c1 | inhibition | % | 50.7 |
| c1cc(-c2cnn3nc(N4CCOCC4)ccc23)nc(NC2CC2)n1 | inhibition | % | 76.8 |
| N#Cc1c(NC(=O)c2ccc(F)cc2)sc2c1CCCC2 | inhibition | % | 7.32 |
| O=S(=O)(CCNCc1ccc(-c2ccc3ncnc(Nc4ccc(OCc5cccc(F)c5)c(Cl)c4)c3c2)o1)c1ccccc1 | inhibition | % | 19 |
| COc1cc(/C=N/Nc2ncnc3[nH]ncc23)ccc1O | inhibition | % | 72.4 |
| CCNC(=O)O[C@H]1CN[C@H](C#Cc2cc3ncnc(Nc4ccc(OCc5cccc(F)c5)c(Cl)c4)c3s2)C1 | inhibition | % | 8.44 |
| O=C(O[C@H]1CN[C@H](C#Cc2cc3ncnc(Nc4ccc(Cc5ccccc5)cc4)c3s2)C1)N1CCOCC1 | inhibition | % | 7.66 |
| COC(=O)Nc1nc2ccc(S(=O)(=O)c3ccc(NC(=O)Nc4cc(C(F)(F)F)ccc4F)cc3)cc2[nH]1 | inhibition | % | 4.3 |
| Cc1ccc(O)cc1Nc1ccnc2cc(-c3ccccn3)ccc12 | inhibition | % | 89.5 |
| CC(=O)NCc1cccc(C#Cc2cncnc2Nc2ccc(OCc3cccc(F)c3)c(Cl)c2)c1 | inhibition | % | 6.14 |
| CS(=O)(=O)CCNCc1ccc(-c2ccc3ncnc(Nc4ccc(OCc5ccccc5)c(C(F)(F)F)c4)c3c2)o1 | inhibition | % | 7.17 |
| CC(=O)Nc1cccc(C#Cc2cncnc2Nc2ccc(OCc3cccc(F)c3)c(Cl)c2)c1 | inhibition | % | 15.1 |
| CCn1c(-c2nonc2N)nc2ccccc21 | inhibition | % | 8.29 |
| COc1cccc(-n2ncc3c(N/N=C/c4ccc(F)cc4)ncnc32)c1 | inhibition | % | 42.1 |
| Cc1cccc(Nc2ncc(-c3ccccc3)o2)c1 | inhibition | % | 29.9 |
| CCn1c(-c2nonc2N)nc2c(C#CC(C)(C)O)ncc(OC3CCNCC3)c21 | inhibition | % | 19.5 |
| CS(=O)(=O)CCNCc1coc(-c2ccc3ncnc(Nc4ccc(OCc5ccccc5)cc4)c3c2)c1 | inhibition | % | 11.5 |

The reported measurements were obtained from ChEMBL document CHEMBL1961873.
